Listing of recorded cell viability by entry.
# Test system: SEM cells
# measurement.notes: cell viability relative to DMSO control; higher = less cytotoxic
# measurement.setup: RPMI 5 mM glucose + 10% dialyzed FBS; 48 h; 0.00702 µM
Reply numerically in %, unit not repeated.

In the examples that follow, each entry is paired with its recorded cell viability.
[[record]]
molecule = "NCC1(CC(=O)O)CCCCC1"
assayed_target = "SEM cells"
endpoint_label = "cell viability"
measured = 113

[[record]]
molecule = "O=NN(CCCl)C(=O)NC1CCCCC1"
assayed_target = "SEM cells"
endpoint_label = "cell viability"
measured = 87.5

[[record]]
molecule = "[NH2][Pt]1([NH2])[O]CC(=O)[O]1"
assayed_target = "SEM cells"
endpoint_label = "cell viability"
measured = 85.7

[[record]]
molecule = "Cc1ccccc1N1C(=O)c2cc([S+](N)(=O)[O-])c(Cl)cc2NC1C (centres undefined)"
assayed_target = "SEM cells"
endpoint_label = "cell viability"
measured = 89.6

[[record]]
molecule = "CC(C)n1c(/C=C/[C@H](O)C[C@H](O)CC(=O)O)c(-c2ccc(F)cc2)c2ccccc21"
assayed_target = "SEM cells"
endpoint_label = "cell viability"
measured = 129


Prompt: Given the molecule "Cc1c(CCOc2ccc(C(=O)O)cc2)c2cc(Cl)ccc2n1C(c1ccccc1)c1ccccc1" , what is its reported cell viability?
Response: 97.1

Prompt: Given the molecule "CC(C)[C@@H](N(CCCN)C(=O)C1=CC=C(C)C=C1)C/2=N/C3=CC(=CC=C3C(=O)N2CC4=CC=CC=C4)Cl" , what is its reported cell viability?
Response: 16.2

Prompt: Given the molecule "COc1cnc(N[S+](=O)([O-])c2ccc(N)cc2)nc1" , what is its reported cell viability?
Response: 106

Prompt: Given the molecule "COc1ccc(-c2cc3nccn3c(Nc3ncccc3C(N)=O)n2)cc1OC" , what is its reported cell viability?
Response: 86.6
